Target: GSK3A (Homo sapiens)
Sequence (P49840 whole entry): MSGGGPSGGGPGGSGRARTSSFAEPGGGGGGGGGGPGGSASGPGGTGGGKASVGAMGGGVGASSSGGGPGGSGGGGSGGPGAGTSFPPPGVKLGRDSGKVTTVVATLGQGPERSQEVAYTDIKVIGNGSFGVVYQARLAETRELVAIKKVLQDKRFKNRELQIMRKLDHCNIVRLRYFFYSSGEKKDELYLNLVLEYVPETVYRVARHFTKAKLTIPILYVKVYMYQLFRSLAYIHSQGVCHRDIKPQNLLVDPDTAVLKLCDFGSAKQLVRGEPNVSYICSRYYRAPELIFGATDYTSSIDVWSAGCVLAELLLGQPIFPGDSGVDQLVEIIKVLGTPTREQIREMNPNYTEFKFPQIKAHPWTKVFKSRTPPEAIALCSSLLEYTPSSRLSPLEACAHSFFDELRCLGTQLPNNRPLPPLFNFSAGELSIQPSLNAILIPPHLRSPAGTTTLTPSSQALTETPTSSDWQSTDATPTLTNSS
Assay: NanoBRET cellular target engagement assay, Nanoluc-GSK3A in HEK293 cells
Conditions: NanoBRET GSK3α IC50, HEK293 cells, tracer K-8, 2 hours, 37° C
Procedure: In the assay, HEK293 cells stably expressing either Nanoluc-GSK3A or Nanoluc-GSK3B were maintained in culture media and seeded, using a multidrop dispenser, at a density of 5×10^3 cells per well in 384-well white plates with 100 ng/ml doxycycline (Sigma) overnight. Compound was first diluted in DMSO to generate a 9-point serial dilution then diluted to 10× final concentration in Opti-MEM™ (Gibco). […]
Where a name gives a salt, the structure may show the parent alone.
recorded.metric: pIC50
One number for each entry, as −log10 of the molar value.

Consider the following illustrative entries.
INSERT INTO results (compound, assay_value) VALUES
  ('COc1cc(Cl)c(-n2cnc(N)c(C(=O)Nc3cncc(C4CCCC(C)N4)c3)c2=O)c(Cl)c1 (single isomer, unassigned)', 8.39),
  ('COc1cc(Cl)c(-n2cnc(N)c(C(=O)Nc3cncc([C@]4(N)CCCOC4)c3)c2=O)c(Cl)c1 (single isomer, unassigned) [Example 187]', 8.25),
  ('Cc1cc(CC(F)F)cc(C)c1-n1cnc(N)c(C(=O)Nc2cncc(C(C)N)c2)c1=O (single isomer, unassigned)', 8.30),
  ('COCc1cc(C)c(-n2cnc(N)c(C(=O)Nc3cncc([C@H]4CCCCN4)c3)c2=S)c(C)c1 [Example 163, trifluoroacetate]', 8.55);

For every item below, please supply its pIC50.
1. Nc1ncn(-c2c(Cl)cc(C(F)F)cc2Cl)c(=O)c1C(=O)Nc1cncc([C@@H]2CCCN2)c1
2. CCNCc1cncc(NC(=O)c2c(N)ncn(-c3c(Cl)cc(C(=O)OCC)cc3Cl)c2=O)c1
3. COC(=O)c1cc(Cl)c(-n2cnc(N)c(C(=O)Nc3cncc([C@@H]4CCCCN4)c3)c2=O)c(Cl)c1

Result:
[8.19, 8.62, 8.38]

* * *

Target: GSK3A (Homo sapiens)
Assay: NanoBRET cellular target engagement assay, Nanoluc-GSK3A in HEK293 cells
Conditions: NanoBRET GSK3α IC50, HEK293 cells, tracer K-8, 2 hours, 37° C
For each record, write down the corresponding pIC50.
Numbers only, as −log10 of the molar value.

Example compounds with recorded pIC50:
INSERT INTO results (compound, target_under_test, recorded_metric, assay_value) VALUES
  ('COCc1cc(Cl)c(-n2cnc(N)c(C(=O)Nc3cncc(CNC(C)C)c3)c2=O)c(Cl)c1', 'GSK3A (Homo sapiens)', 'pIC50', 8.19),
  ('C#CCC(N)c1cncc(NC(=O)c2c(N)ncn(-c3c(Cl)cc(OCC)cc3Cl)c2=O)c1 (single isomer, unassigned) [Example 151]', 'GSK3A (Homo sapiens)', 'pIC50', 8.15),
  ('CCNCc1cncc(NC(=O)c2c(N)ncn(-c3c(C)cc(CC(F)F)cc3C)c2=O)c1', 'GSK3A (Homo sapiens)', 'pIC50', 8.09);

Provide pIC50 for all items below, preserving their order.
1. [2H]C([2H])([2H])NC(C)c1cncc(NC(=O)c2c(N)ncn(-c3c(C)cc(OC)cc3Cl)c2=O)c1 (single isomer, unassigned)
2. Cc1cc(C)c(-n2cnc(N)c(C(=O)Nc3cncc([C@H]4CCCCN4)c3)c2=O)c(C)c1

Result:
[8.85, 9.00]

Can you give me pIC50 for all of these, one by one?
1. COc1cc(Cl)c(-n2cnc(N)c(C(=O)Nc3cncc(C4CCC(C)N4)c3)c2=O)c(Cl)c1 (single isomer, unassigned) [Example 78]
2. CCNCc1cncc(NC(=O)c2c(N)ncn(-c3c(Cl)cc(C(F)(F)F)cc3Cl)c2=O)c1
3. Nc1ncn(-c2c(Cl)cc(Cl)cc2Cl)c(=O)c1C(=O)Nc1cncc([C@@H]2CCCCN2)c1
4. Cc1cc(C(F)CF)cc(C)c1-n1cnc(N)c(C(=O)Nc2cncc(C3CCCCCN3)c2)c1=O (single isomer, unassigned) [Example 115]

Result:
[8.11, 8.25, 8.33, 8.33]
